System: Vibrio harveyi; further: test concentration or dose not given here
Assay: Mutagenicity in Vibrio harveyi BB7 assessed as number of colonies after 48 hrs (reference value: 13 to 14 no_unit)
Assay type: ADME, organism-based
Conditions: in vivo
MEASURED_PROPERTY: Activity
Give bare numbers.

compound=Cc1ccc(OCCN[C@H](C)CO)c(C)c1 subject_of_test="Vibrio harveyi" measured_property=Activity observed=22
compound="Cc1cc(C)c(OCCOCCNC(C)CO)c(C)c1 (centres undefined)" subject_of_test="Vibrio harveyi" measured_property=Activity observed=25
compound="Cc1cccc(C)c1OCCOCCN[C@@H]1CCCC[C@H]1O (racemic)" subject_of_test="Vibrio harveyi" measured_property=Activity observed=29

Now look at this one.
Q: // returns reported Activity for input `CC[C@@H](CO)NCCOCCOc1c(C)cccc1C`
Result: 28
